B1: tRNA (parent)
chain: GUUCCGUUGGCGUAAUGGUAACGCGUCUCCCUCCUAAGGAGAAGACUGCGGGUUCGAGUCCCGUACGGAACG

Variants of: B1
method_summary: yeast fitness relative to wild type (ratio to wild type); higher = fitter; tRNA-Arg(CCU), competitive growth, 37 C, YPD
Fewer inactive variants are shown than the library holds.
readout_type: yeast fitness

{"sequence_code": "GUUCCGUUGGACUAAUGGUAACGCGUCUCCCUCCUAAGGAGAAGACUGCGGGUUCGAGUCCCAUACGGAACG", "yeast fitness": "≤ 0.5"}
{"sequence_code": "GUUCCGUUGGCGUAAUGGUUACGCGUCUCCCUCCUAACGAGAAGCCUGCGGGUUCGAGUGCCGUACGGAACG", "yeast fitness": "≤ 0.5"}
{"sequence_code": "GUUUCGUUGCCGUAAUGGUAACGCGUCUCCCUCCUUAGGAGAAGACUGCGGGUUCGAGUCCCGUACGGAACG", "yeast fitness": 0.659}
{"sequence_code": "GUUCCGUUGGCGUAAUGGUAACGCAUCUCCCUCCUAAGGAGAACACUGCGGAUUCGAGUCCGGUACGGGACG", "yeast fitness": "≤ 0.5"}
{"sequence_code": "GUUCCGUUGGCGUACUGGUAACGCGUCUCCCUCCUAAGGAGAAGACUGCGGGUUUGAGUCCCGUGCGGAACG", "yeast fitness": "≤ 0.5"}

// sample GUUCCGUUGGUGUAAUGGUAACGCGUCUGCUUCCUAAGGAGAAGACUGCGGGUUCGAUUCCCGUGCAGAACG , its yeast fitness was ≤ 0.5

The recorded yeast fitness for entry GUUCCGUUGGCGUAAUGGUAACGCGUCUCUCUCCUAAGGAGAAGACUCCGGGUUCGAGUCCCGUGCGGAACG equals 0.606

For reference, reported yeast fitness for GUUCCGUUGGCGUAAUGGUAAUGCCUCUCCCUCCUAAGGAGAAGACUGCGGGUUCGAGUCCUGUACGGAACG stands at 0.67

Entry GUUCCAUUGGCGUAAUGGUAACGCGUCCCCCUCCUAAGGAGAAGGCUGCGGGUUCGAGUCCCGUACGGAACG , yeast fitness reported as 0.781

yeast fitness recorded for this variant, GUACCCUUGGCGUAAUGGUAACGCGUCUCCCUCCUAUGGAGAAGACUGCGGGUUCGAAUCCCGUACGGAACG , is 0.524

The value of yeast fitness measured for the variant GUUCCGUUGGCGUAAUGGUAACGCGUCUCCCUCCUAAGGAGAAGACUGAGGGUUCGAGUCCUGUAUGGAACG turned out to be 0.585

Measured yeast fitness of GUUCCGUUGGCCUAAUGGUAACGCGUCUCCCUCCUAAGGAGAAGAUUGGGGGUUCGAGUCCCGUACGGAACG : 0.622

So for GUUGCGUUGGCGUAAUGGUAACGCGUCUCCCUCCUAAGGAGAAGACUGCGGGUUCGAGUCCUGUACGGUACG , the logged yeast fitness turned out to be 0.672

Summary for this variant, GUUCCGUUGGCGUAAUGGUAUCGCGUCUCCCUCCUCAGGAGAAGACUGCGGGUUCGAGUCCCGUACGGAACG : yeast fitness is ≤ 0.5

Entry GUUCCAUUGGCGUAAUGGUAACGCGUCUCCCACCUAUGGAGACGACUCCGGGUUCGAGUCCCGUACGGAACG — recorded yeast fitness = ≤ 0.5

Memo: GUUCCGUUGGGGUAAUGGUAACGCGUCUCGCUACUAAGGAGAAGACUGCGGGUUCGAGUCCCGUAUGGAACG , reported yeast fitness: ≤ 0.5
